Biological target: rat GHS-receptor (GHR-R) (Rattus norvegicus)
Construct: A full-length cDNA for rat GHR-R was obtained by RT-PCR; expressed in transfected cells
Assay: Ca-releasing activity (increase in intracellular calcium) in CHO-GHSR62 cells, FLIPR
Format: cell-based
Conditions: CHO-GHSR62 cells (CHO cells expressing rat GHS receptor), FLIPR; read-out: Ca-releasing activity EC50
pEC50: −log10 of the molar value. Peptide text beside a SMILES is read from it. * marks the point of attachment. Octanoyl = CCCCCCCC(=O)*
Endpoint: pEC50

• CCCCCCCC(=O)OC[C@H](NC(=O)[C@H](CO)NC(=O)CN)C(=O)N[C@@H](Cc1ccccc1)C(=O)N[C@@H](CC(C)C)C(=O)N[C@@H](CO)C(=O)N[C@@H](CCCCN)C(N)=O [Compound 75, [Lys^7]-Ghrelin (1-7)-amide] (H-GSS(Octanoyl)FLSK-NH2) = 7.96
• CCCCCCCCOC[C@H](NC(=O)CCCCN)C(=O)N[C@@H](Cc1ccccc1)C(=O)N[C@@H](CCCCN)C(N)=O = 7.92
• CCCCCCCC(=O)OC[C@H](NC(=O)[C@H](CO)NC(=O)CN)C(=O)N[C@@H](Cc1ccccc1)C(=O)N[C@@H](CC(C)C)C(=O)N[C@@H](CO)C(=O)N1CCC[C@H]1C(=O)N[C@@H](CCC(=O)O)C(=O)N[C@@H](Cc1c[nH]cn1)C(N)=O [Compound 3, Ghrelin (1-9)-amide] (H-GSS(Octanoyl)FLSPEH-NH2) = 8.27

* * *

Target: rat GHS-receptor (GHR-R) (Rattus norvegicus, UniProt O08725)
Construct: A full-length cDNA for rat GHR-R was obtained by RT-PCR; expressed in transfected cells
Sequence (O08725 whole entry): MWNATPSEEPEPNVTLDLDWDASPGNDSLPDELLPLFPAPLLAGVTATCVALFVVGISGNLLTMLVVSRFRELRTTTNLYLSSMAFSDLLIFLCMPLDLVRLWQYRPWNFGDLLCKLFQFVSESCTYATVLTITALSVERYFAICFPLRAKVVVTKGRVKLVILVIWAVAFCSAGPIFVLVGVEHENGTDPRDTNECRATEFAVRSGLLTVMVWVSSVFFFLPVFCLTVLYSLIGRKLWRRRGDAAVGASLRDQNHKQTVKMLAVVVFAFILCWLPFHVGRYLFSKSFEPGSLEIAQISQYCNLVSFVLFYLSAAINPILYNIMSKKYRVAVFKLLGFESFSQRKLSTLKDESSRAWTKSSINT
Test: Ca-releasing activity (increase in intracellular calcium) in CHO-GHSR62 cells, FLIPR
Type: cell-based
Settings: Table 3, Example 9: protease fragments or synthetic peptides; CHO-GHSR62 cells; read-out: Ca-releasing activity (EC50)
Endpoint: EC50 (nM)
Form entry: value (nM) — number only.

Asked: Endpoint output: EC50 of CCCCCCCC(=O)OC[C@H](NC(=O)[C@H](CO)NC(=O)CN)C(=O)N[C@@H](Cc1ccccc1)C(=O)N[C@@H](CC(C)C)C(=O)N[C@@H](CO)C(=O)N1CCC[C@H]1C(=O)N[C@@H](CCC(=O)O)C(=O)N[C@@H](Cc1c[nH]cn1)C(=O)N[C@@H](CCC(N)=O)C(=O)N[C@@H](CCCNC(=N)N)C(=O)O [Compound 23, hGhrelin (1-11)] . Value?
Given back: 15

* * *

Target: rat GHS-receptor (GHR-R) (Rattus norvegicus)
Construct: A full-length cDNA for rat GHR-R was obtained by RT-PCR; expressed in transfected cells
Assay: Ca-releasing activity (increase in intracellular calcium) in CHO-GHSR62 cells, FLIPR
Assay type: cell-based
Settings: CHO-GHSR62 cells (CHO cells expressing rat GHS receptor), FLIPR; read-out: Ca-releasing activity EC50
Square brackets hold non-standard residues; d marks the D form. Peptide text beside a SMILES is read from it. * marks the point of attachment. Octanoyl = CCCCCCCC(=O)*; Aib = CC(C)(N)C(=O)O; Octyl = CCCCCCCC*
Endpoint: EC50 (nM)

Consider the following illustrative entries.
- CCCCCCCC(=O)OC[C@H](NC(=O)[C@H](CO)NC(=O)CN)C(=O)N[C@@H](Cc1ccccc1)C(=O)O [Compound 33-1, Ghrelin (1-4)] (H-GSS(Octanoyl)F-OH): 480
- CCCCCCCC(=O)OC[C@H](NC(=O)[C@H](CO)NC(=O)CN)C(=O)N[C@@H](Cc1ccccc1)C(=O)N[C@@H](CC(C)C)C(=O)N[C@@H](CO)C(=O)N1CCC[C@H]1C(=O)N[C@@H](CCCNC(=N)N)C(N)=O [Compound 36, [Arg^8]-Ghrelin (1-8)-amide] (H-GSS(Octanoyl)FLSPR-NH2): 1.1
- CCCCCCCCSC[C@H](NC(=O)[C@H](CO)NC(=O)CN)C(=O)N[C@H](Cc1ccccc1)C(=O)N[C@@H](CC(C)C)C(=O)N[C@@H](CO)C(=O)N1CCC[C@H]1C(N)=O [Compound 49] (H-GSC(Octyl)[dF]LSP-NH2): 3000

a. CCCCCCCC(=O)OC[C@H](NC(=O)[C@H](CCCCN)NC(=O)CN)C(=O)N[C@@H](Cc1ccccc1)C(=O)N[C@@H](CC(C)C)C(=O)N[C@@H](CO)C(=O)N1CCC[C@H]1C(N)=O [Compound 46, [Lys^2]-Ghrelin (1-7)-amide] (H-GKS(Octanoyl)FLSP-NH2)
b. CCCCCCCC(=O)OC[C@H](NC(=O)[C@H](CO)NC(=O)CN)C(=O)N[C@@H](Cc1ccccc1)C(=O)N[C@@H](CC(C)C)C(=O)N[C@@H](CO)C(N)=O [Compound 30, Ghrelin (1-6)-amide] (H-GSS(Octanoyl)FLS-NH2)
Asked: Of a and b , which shows the smaller EC50 value? Selection: enter the item's label.
Given back: b
(b: 4.8 nM, a: 24 nM)

1. CCCCCCCCOC[C@@H](NC(=O)[C@H](Cc1c[nH]cn1)NC(=O)C(C)(C)N)C(=O)N[C@H](Cc1ccccc1)C(=O)N[C@@H](CCCCN)C(N)=O [Compound 79] (H-[Aib]H[dS](Octyl)[dF]K-NH2)
2. CCCCCCCCSC[C@H](NC(=O)[C@H](CO)NC(=O)CN)C(=O)N[C@@H](Cc1ccccc1)C(=O)N[C@@H](CC(C)C)C(=O)N[C@@H](CO)C(=O)N1CCC[C@H]1C(N)=O [Compound 48, [Cys^3(Octyl)]-Ghrelin (1-7)-amide] (H-GSC(Octyl)FLSP-NH2)
3. CCCCCCCCOC[C@@H](NC(=O)CCCCN)C(=O)N[C@H](Cc1ccccc1)C(=O)N[C@@H](CCCCN)C(N)=O
Asked: I would appreciate it if you could sort these 3 molecules by EC50, starting from the smallest number. Use the labels to give the requested order.
Given back: 2, 1, 3

* * *

Target: rat GHS-receptor (GHR-R) (Rattus norvegicus, UniProt O08725)
Construct: A full-length cDNA for rat GHR-R was obtained by RT-PCR; expressed in transfected cells
Assay: Ca-releasing activity (increase in intracellular calcium) in CHO-GHSR62 cells, FLIPR
Type: cell-based
Settings: CHO-GHSR62 cells (CHO cells expressing rat GHS receptor), FLIPR; read-out: Ca-releasing activity EC50
Procedure: To assay an increase in the intracellular calcium ion concentration (Ca-releasing activity) occurring upon binding of a GH secretagogue (GHS) to GHS-receptor (GHR-R), a cell strain expressing rat GHR-R was created in the following manner. […] The amplified cDNA was ligated to vector pcDNAIII (Invitrogen) to construct expression vector GHSR-pcDNAIII. […] A change in the intracellular calcium ion concentration (Ca-releasing activity) was measured by an FLIPR system (Molecular Device). […]
pEC50: −log10 of the molar value. Peptide text beside a SMILES is read from it. * marks the point of attachment. Octanoyl = CCCCCCCC(=O)*
Endpoint: pEC50

* CCCCCCCC(=O)OC[C@H](NC(=O)[C@H](CO)NC(=O)CN)C(=O)N[C@@H](Cc1ccccc1)C(=O)N[C@@H](CC(C)C)C(=O)N[C@@H](CO)C(=O)N1CCC[C@H]1C(=O)N[C@@H](CCC(=O)O)C(=O)N[C@@H](Cc1c[nH]cn1)C(=O)N[C@@H](CCC(N)=O)C(=O)N[C@@H](CCCCN)C(=O)N[C@@H](C)C(=O)N[C@@H](CCC(N)=O)C(=O)N[C@@H](CCC(N)=O)C(=O)N[C@@H](CCCNC(=N)N)C(=O)O | 8.07
* CCCCCCCC(=O)OC[C@H](NC(=O)[C@H](CC(C)C)NC(=O)CN)C(=O)N[C@@H](Cc1ccccc1)C(=O)N[C@@H](CC(C)C)C(=O)N[C@@H](CO)C(=O)N1CCC[C@H]1C(N)=O [Compound 44, [Leu^2]-Ghrelin (1-7)-amide] (H-GLS(Octanoyl)FLSP-NH2) | 7.38

A. CCCCCCCCOC[C@H](NC(=O)CCCCN)C(=O)N[C@@H](Cc1ccccc1)C(=O)N[C@@H](CC(C)C)C(=O)NC
B. CCCCCCCC(=O)OC[C@H](NC(=O)[C@H](CO)NC(=O)CN)C(=O)N[C@@H](Cc1ccccc1)C(N)=O [Compound 33-2, Ghrelin (1-4)-amide] (H-GSS(Octanoyl)F-NH2)
Asked: Of A and B , which shows the smaller pEC50 value? Selection: enter the item's label.
Given back: B

* * *

Target: rat GHS-receptor (GHR-R) (Rattus norvegicus, UniProt O08725)
Construct: A full-length cDNA for rat GHR-R was obtained by RT-PCR; expressed in transfected cells
Test: Ca-releasing activity (increase in intracellular calcium) in CHO-GHSR62 cells, FLIPR
Type: cell-based
Conditions: Table 3, Example 9: protease fragments or synthetic peptides; CHO-GHSR62 cells; read-out: Ca-releasing activity (EC50)
Endpoint: EC50 (nM)

• CCCCCCCC(=O)OC[C@H](NC(=O)[C@H](CO)NC(=O)CN)C(=O)N[C@@H](Cc1ccccc1)C(=O)N[C@@H](CC(C)C)C(=O)N[C@@H](CO)C(=O)N1CCC[C@H]1C(=O)N[C@@H](CCC(=O)O)C(=O)N[C@@H](Cc1c[nH]cn1)C(=O)N[C@@H](CCC(N)=O)C(=O)N[C@@H](CCCCN)C(=O)O = 15

I. CCCCCCCC(=O)OC[C@H](NC(=O)[C@H](CO)NC(=O)CN)C(=O)N[C@@H](Cc1ccccc1)C(=O)N[C@@H](CC(C)C)C(=O)N[C@@H](CO)C(=O)N1CCC[C@H]1C(=O)N[C@@H](CCC(=O)O)C(=O)N[C@@H](Cc1c[nH]cn1)C(=O)N[C@@H](CCC(N)=O)C(=O)O
II. CCCCCCCC(=O)OC[C@H](NC(=O)[C@H](CO)NC(=O)CN)C(=O)N[C@@H](Cc1ccccc1)C(=O)N[C@@H](CC(C)C)C(=O)N[C@@H](CO)C(=O)N1CCC[C@H]1C(=O)N[C@@H](CCC(=O)O)C(=O)O
Asked: Of I and II , which shows the smaller EC50 value? Selection: enter the item's label.
Given back: I
